Origin of the recorded values: the supplement of paper PMC9170038

Readings of apparent KD of MS2 coat protein for the listed sequences
# Tested on: MS2 coat protein
# measurement.protocol: apparent KD of MS2 coat protein; designed switch direction (-1 OFF switch, 1 ON switch): -1; higher = weaker reporter binding
# condition.description: input ligand: none
reported.endpoint: apparent KD of MS2 coat protein (nM)

INSERT INTO results (input_sequence, reported_endpoint, quantity_unit, reading) VALUES
  ('UAGAGACAUGAGGAUCACCCAUGUCAGGAUAUCUGCUUAGACAGGUUCACGGUCUAGUAGAGAAGGGACUGGAG [Eternabot (L2) Solution 42] (Eterna round: R97, puzzle: Exclusion 1)', 'apparent KD of MS2 coat protein', 'nM', 87.4),
  ('GCUUGUAGAGGAUAUACGAGGGCCCGAGCGGAUAACACCGCACAUGAGGAUCACCCAUGUAGAAGGCUACUACC [JL-ex2-4.17 ViennaUCT mod] (Eterna round: R97, puzzle: Exclusion 2)', 'apparent KD of MS2 coat protein', 'nM', 92.3),
  ('UCUCGCGGGCAAGGAUAUCCUACGCUGUUCUGGCCCGUGUUUGUUACAUGAGGAUCACCCAUGUGGGAGAAGGUGCACCAGGGC [Design 41] (Eterna round: R96, puzzle: Exclusion NG 2)', 'apparent KD of MS2 coat protein', 'nM', 76.4),
  ('ACAAGCUUAAAAGGUGAUAACAUGAGGAUCACCCAUGUUCGUCUUAUAAAAAUAAAAAUAAAAAAUAAAAAAUAAAA [Sensor V2: 61] (Eterna round: R96, puzzle: Sensor v2, turn-off variant)', 'apparent KD of MS2 coat protein', 'nM', 24.2),
  ('GGGUGCAGGCUGCGGUCCUACAUGAGGAUCACCCAUGUGGUCCGGUGGCGUGGGUCGCCGGACUUGGCUCGUCUUGU [salish99_S_TOV1_R5_014] (Eterna round: R97, puzzle: Sensor, turn-off variant 1)', 'apparent KD of MS2 coat protein', 'nM', 99.3);

* * *

# Test system: MS2 coat protein
# measurement.protocol: apparent KD of MS2 coat protein; designed switch direction (-1 OFF switch, 1 ON switch): 1; higher = weaker reporter binding
# condition.description: input ligand: microRNA oligo, concentration not stated
Readings of apparent KD of MS2 coat protein for the listed sequences
reported.endpoint: apparent KD of MS2 coat protein (nM)

INSERT INTO results (input_sequence, reading) VALUES
  ('UUCACCUUAUUUUACAUGAGGAUCACCCAUGUUUUCCCUACGUAGGAUAUCGAUGCUUGAUUGUUCGAGAAGGACGAUGUAAGU [JR_SSND3_Sub055] (Eterna round: R96, puzzle: Same State NG 3)', 21.7),
  ('UGGUACAUGGGAGGAUAUCUCAUGGAGACAUGAGGAUCACCCAUGUAGUUGGGCCGGAAACGGUGAGAGAAGGCCCAUGUACCU [JL SSNG1 3.71] (Eterna round: R96, puzzle: Same State NG 2)', 338),
  ('AAAAGAAACGCAGGAUAUGCACAUGAGGAUCACCCAUGUCCCACAGGCUCGACCGAGCCCGUGAAGCAGAAGGGUGUAAGAAAA [Redibere] (Eterna round: R96, puzzle: Same State NG 2)', 426),
  ('GUGGUCAGACAUGAGGAUCACCCAUGUGGAAUAAAUAAGGAUCAGGAUAUGGAAUAUAGGAUAUACCAGAAGGGAUGGUUGGUG (Eterna round: R96, puzzle: Same State NG 3)', 41.7),
  ('ACAUGAGACUUAGGAUAUGUUGUACCUACAUGUGACAUGAGGAUCACCCAUGUGGUAAGUAUGAGACAGAAGGAAGAGAUAUGU [Equivalence 29 - Jieux - Same State NG 2] (Eterna round: R96, puzzle: Same State NG 2)', 26.3);
